The reported numbers originate from patent US20060257938A1.

Listed here: items and their measured DR/DR AA.
procedure summary: Probe fluorescence ratio response to arachidonic acid relative to ADIFAB2
Assay type: binding
condition description: arachidonic acid; response relative to ADIFAB2
measurement name: DR/DR AA

>>> readout_number("34P, 72A (protein, listed as Rattus norvegicus, PEPTIDE (1)...(131) wild-type rat intestinal fatty acid binding protein) AFDGTWKVDRNENYEKFMEKMGINVVKRKLGAHPNLKLTITQEGNKFTVKESSNFRNIDVVFELGVDFAYSAADGTELTGTWTMEGNKLVGKFKRVDNGKELIAVREISGNELIQTYTYEGVEAKRIFKKE")
0.46
>>> readout_number("11Y1, L72A (protein, listed as Rattus norvegicus, PEPTIDE (1)...(131) wild-type rat intestinal fatty acid binding protein) AFDGTWKVDRYENYEKFMEKMGINVVKRKLGAHDNLKLTITQEGNKFTVKESSNFRNIDVVFELGVDFAYSAADGTELTGTWTMEGNKLVGKFKRVDNGKELIAVREISGNELIQTYTYEGVEAKRIFKKE")
0.49
>>> readout_number("38T, 72A (protein, listed as Rattus norvegicus, PEPTIDE (1)...(131) wild-type rat intestinal fatty acid binding protein) AFDGTWKVDRNENYEKFMEKMGINVVKRKLGAHDNLKTTITQEGNKFTVKESSNFRNIDVVFELGVDFAYSAADGTELTGTWTMEGNKLVGKFKRVDNGKELIAVREISGNELIQTYTYEGVEAKRIFKKE")
1.598
>>> readout_number("115R1, 72A (protein, listed as Rattus norvegicus, PEPTIDE (1)...(131) wild-type rat intestinal fatty acid binding protein) AFDGTWKVDRNENYEKFMEKMGINVVKRKLGAHDNLKLTITQEGNKFTVKESSNFRNIDVVFELGVDFAYSAADGTELTGTWTMEGNKLVGKFKRVDNGKELIAVREISGNELIRTYTYEGVEAKRIFKKE")
1.40
>>> readout_number("31M2, 72A (protein, listed as Rattus norvegicus, PEPTIDE (1)...(131) wild-type rat intestinal fatty acid binding protein) AFDGTWKVDRNENYEKFMEKMGINVVKRKLMAHDNLKLTITQEGNKFTVKESSNFRNIDVVFELGVDFAYSAADGTELTGTWTMEGNKLVGKFKRVDNGKELIAVREISGNELIQTYTYEGVEAKRIFKKE")
0.52
>>> readout_number("21F 78I 102F 72A (protein, listed as Rattus norvegicus, PEPTIDE (1)...(131) wild-type rat intestinal fatty acid binding protein) AFDGTWKVDRNENYEKFMEKFGINVVKRKLGAHDNLKLTITQEGNKFTVKESSNFRNIDVVFELGVDFAYSAADGTEITGTWTMEGNKLVGKFKRVDNGKEFIAVREISGNELIQTYTYEGVEAKRIFKKE")
4.836
>>> readout_number("36G2, 72A (protein, listed as Rattus norvegicus, PEPTIDE (1)...(131) wild-type rat intestinal fatty acid binding protein) AFDGTWKVDRNENYEKFMEKMGINVVKRKLGAHDNGKLTITQEGNKFTVKESSNFRNIDVVFELGVDFAYSAADGTELTGTWTMEGNKLVGKFKRVDNGKELIAVREISGNELIQTYTYEGVEAKRIFKKE")
1.00
>>> readout_number("18V 31Y 73V 72A (protein, listed as Rattus norvegicus, PEPTIDE (1)...(131) wild-type rat intestinal fatty acid binding protein) AFDGTWKVDRNENYEKFVEKMGINVVKRKLYAHDNLKLTITQEGNKFTVKESSNFRNIDVVFELGVDFAYSAVDGTELTGTWTMEGNKLVGKFKRVDNGKELIAVREISGNELIQTYTYEGVEAKRIFKKE")
2.400
>>> readout_number("18V 31F 55L 72A (protein, listed as Rattus norvegicus, PEPTIDE (1)...(131) wild-type rat intestinal fatty acid binding protein) AFDGTWKVDRNENYEKFVEKMGINVVKRKLFAHDNLKLTITQEGNKFTVKESSNLRNIDVVFELGVDFAYSAADGTELTGTWTMEGNKLVGKFKRVDNGKELIAVREISGNELIQTYTYEGVEAKRIFKKE")
0.921
>>> readout_number("36E2, 72A (protein, listed as Rattus norvegicus, PEPTIDE (1)...(131) wild-type rat intestinal fatty acid binding protein) AFDGTWKVDRNENYEKFMEKMGINVVKRKLGAHDNEKLTITQEGNKFTVKESSNFRNIDVVFELGVDFAYSAADGTELTGTWTMEGNKLVGKFKRVDNGKELIAVREISGNELIQTYTYEGVEAKRIFKKE")
0.24
>>> readout_number("23L3, 72A (protein, listed as Rattus norvegicus, PEPTIDE (1)...(131) wild-type rat intestinal fatty acid binding protein) AFDGTWKVDRNENYEKFMEKMGLNVVKRKLGAHDNLKLTITQEGNKFTVKESSNFRNIDVVFELGVDFAYSAADGTELTGTWTMEGNKLVGKFKRVDNGKELIAVREISGNELIQTYTYEGVEAKRIFKKE")
1.17
